These measurements were taken from patent US20250221967A1.

# assay_target: HDAC1 binding Rb-NT (380-785) (Homo sapiens, UniProt P06400)
# Construct: Rb-NT (380-785)
# Sequence (P06400 380-785): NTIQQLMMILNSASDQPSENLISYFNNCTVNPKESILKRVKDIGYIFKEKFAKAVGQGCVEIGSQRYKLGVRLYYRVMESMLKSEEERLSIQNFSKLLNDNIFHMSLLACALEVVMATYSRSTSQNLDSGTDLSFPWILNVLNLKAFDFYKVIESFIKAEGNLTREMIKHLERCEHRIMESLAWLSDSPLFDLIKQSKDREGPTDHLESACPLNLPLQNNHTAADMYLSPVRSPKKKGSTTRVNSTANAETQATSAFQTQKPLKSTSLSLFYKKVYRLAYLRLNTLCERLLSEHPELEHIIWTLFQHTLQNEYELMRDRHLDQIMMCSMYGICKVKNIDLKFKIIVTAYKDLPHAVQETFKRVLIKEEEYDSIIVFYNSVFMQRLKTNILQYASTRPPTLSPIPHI
# protocol_description: Inhibition of HDAC1 binding to Rb-NT (380-785)
# Procedure: Additionally, the binding of different proteins was evaluated. The binding of E7, E2F1, MDM2, and HDAC1 were evaluated to Rb fragments. The compounds tested herein where shown inhibit HDAC1 binding to the Rb fragments in the LxCxE binding pocket.
quantity_name: IC50 (nM)
One number for each entry, in nM.

Quick one: IC50 for COc1cccc(-n2sc(=O)n(C)c2=O)c1 [AP-03-084] ? 89

---
Quick one: IC50 for O=c1sn(-c2cccc3ccccc23)c(=O)n1Cc1ccccc1 [Tideglusib, reference compound] ? 40
